Tested on: Pseudo Aeruginosa HH 63
Experiment: MIC in vitro, Pseudo Aeruginosa HH 63 (G-)
Type: cell-based
Where a name gives a salt, the structure may show the parent alone.
experimental_readout: MIC

Study these solved cases before continuing.
{"columns": ["molecule", "val"],
 "data": [
  ["Cc1nnc(SCC2=C(C(=O)O)N3C(=O)[C@@H](NC(=O)Cn4cnnn4)[C@H]3SC2)s1 [Cefazolin, reference compound]", "> 200 mg/L"],
  ["CO/N=C(\\C(=O)N[C@@H]1C(=O)N2C(C(=O)O)=C(CSc3nnnn3CS(=O)(=O)O)CS[C@H]12)c1ccccc1 [Compound B, disodium salt]", "200 mg/L"]
]}

Consider the record given below.
State its MIC: CO[C@@]1(NC(=O)Cc2cccs2)C(=O)N2C(C(=O)O)=C(COC(N)=O)CS[C@@H]21 [Cefoxitin, reference compound]
> 200 mg/L

* * *

Form: system (Proteus morgani 179), quantity (log10 MIC), values below.
Structures can show the parent of a compound that is named as a salt.
Hello, just confirming the data are log10 of MIC with units of µg/mL.

{"columns": ["molecule", "log10 MIC"],
 "data": [
  ["CO/N=C(\\C(=O)N[C@@H]1C(=O)N2C(C(=O)O)=C(CSc3nnnn3CS(=O)(=O)O)CS[C@H]12)c1ccco1 [A, disodium salt hydrate]", 0.20],
  ["CO/N=C(\\C(=O)N[C@@H]1C(=O)N2C(C(=O)O)=C(CSc3nnnn3CS(=O)(=O)O)CS[C@H]12)c1ccccc1 [Compound B, disodium salt]", 0.80],
  ["CO/N=C(\\C(=O)N[C@@H]1C(=O)N2C(C(=O)O)=C(COC(N)=O)CS[C@H]12)c1ccco1 [Cefuroxime, reference compound]", 1.70]
]}

Give log10 MIC only, for O=C(O)C1=C(CSc2nnnn2CS(=O)(=O)O)CS[C@@H]2[C@H](NC(=O)/C(=N\O)c3ccccc3)C(=O)N12 [Compound C, disodium salt] , using Proteus morgani 179 data.
1.40

GET log10 MIC where system = Proteus morgani 179 and item = Cc1nnc(SCC2=C(C(=O)O)N3C(=O)[C@@H](NC(=O)Cn4cnnn4)[C@H]3SC2)s1 [Cefazolin, reference compound]
2.30

Quote log10 MIC with test system Proteus morgani 179 for CO[C@@]1(NC(=O)Cc2cccs2)C(=O)N2C(C(=O)O)=C(COC(N)=O)CS[C@@H]21 [Cefoxitin, reference compound]
1.10

* * *

System: Pseudo Aeruginosa HH 63
Experiment: MIC in vitro, Pseudo Aeruginosa HH 63 (G-)
Type: cell-based
Where a name gives a salt, the structure may show the parent alone.
Listing of entries alongside the reported MIC.

A selection of reference data follows.
{"columns": ["compound", "MIC"],
 "data": [
  ["CO/N=C(\\C(=O)N[C@@H]1C(=O)N2C(C(=O)O)=C(CSc3nnnn3CS(=O)(=O)O)CS[C@H]12)c1ccco1 [A, disodium salt hydrate]", "100 µg/mL"],
  ["O=C(O)C1=C(CSc2nnnn2CS(=O)(=O)O)CS[C@@H]2[C@H](NC(=O)/C(=N\\O)c3ccccc3)C(=O)N12 [Compound C, disodium salt]", "> 200 µg/mL"]
]}

Turning now to a further record.
In one line, give reported MIC of the entry CO/N=C(\C(=O)N[C@@H]1C(=O)N2C(C(=O)O)=C(COC(N)=O)CS[C@H]12)c1ccco1 [Cefuroxime, reference compound] .
> 200 µg/mL

* * *

System: S. villaluz SK 70390
Assay: MIC in vitro, S. villaluz SK 70390 (G+)
Type: cell-based
Settings: S. villaluz SK 70390, G+; read-out: MIC in vitro
Structures can show the parent of a compound that is named as a salt.
experimental_readout: MIC (µg/mL)
Give the value in µg/mL but do not write µg/mL after it.

{"columns": ["compound", "MIC / µg/mL"],
 "data": [
  ["CO[C@@]1(NC(=O)Cc2cccs2)C(=O)N2C(C(=O)O)=C(COC(N)=O)CS[C@@H]21 [Cefoxitin, reference compound]", 100]
]}

We now examine a further compound.
Identify measured MIC corresponding to O=C(O)C1=C(CSc2nnnn2CS(=O)(=O)O)CS[C@@H]2[C@H](NC(=O)/C(=N\O)c3ccccc3)C(=O)N12 [Compound C, disodium salt]
100

* * *

Tested on: Salmonella ATCC 12176
Structures can show the parent of a compound that is named as a salt.
experimental_readout: MIC
// return the numeric value with its unit appended

Solved entries (count: 2):
{"columns": ["compound", "MIC"],
 "data": [
  ["CO/N=C(\\C(=O)N[C@@H]1C(=O)N2C(C(=O)O)=C(COC(N)=O)CS[C@H]12)c1ccco1 [Cefuroxime, reference compound]", "3.1 µg/mL"],
  ["CO/N=C(\\C(=O)N[C@@H]1C(=O)N2C(C(=O)O)=C(CSc3nnnn3CS(=O)(=O)O)CS[C@H]12)c1ccccc1 [Compound B, disodium salt]", "1.6 µg/mL"]
]}

Recall the reported MIC of CO/N=C(\C(=O)N[C@@H]1C(=O)N2C(C(=O)O)=C(CSc3nnnn3CS(=O)(=O)O)CS[C@H]12)c1ccco1 [A, disodium salt hydrate] when tested on Salmonella ATCC 12176.
0.4 µg/mL
